experiment: Solubility in various media (equilibration on a shaking bed for 24 hours, HPLC); assay type: physicochemical; settings: octanol, organic solvent or mixture, thermodynamic from solid, Octanol; ambient, 24 h; read-out: Solubility
MEASURED PARAMETER: solubility at 24 h (µg/mL)
Only the number, expressed in µg/mL, is required.

Memo: CCNC(=O)Nc1nc2cc(-c3cncc(F)c3)cc(-c3ncccn3)c2[nH]1 [Form IA] , reported solubility at 24 h: 175

* * *

Experiment: Solubility in various media (equilibration on a shaking bed for 24 hours, HPLC)
Type: physicochemical
Conditions: SGF (simulated gastric fluid, USP recipe), simulated gastric fluid, thermodynamic from solid, USP recipe-SGF (Simulated Gastric Fluid); ambient, 24 h; read-out: Solubility
Method: Solubility: The solubility of form IA in various media was determined at ambient conditions by equilibrating aliquots of the drug powder with the solvents on a shaking bed for 24 hours. The samples were centrifuged, the saturated solutions of the drug were then separated and analyzed by HPLC. The sample volume was 100 μL and the target concentration was 10 mg/mL. The saturated solutions were diluted appropriately and analyzed by HPLC. […]
MEASURED PARAMETER: solubility at 24 h (µg/mL)
Only the number, expressed in µg/mL, is required.

Memo: CCNC(=O)Nc1nc2cc(-c3cncc(F)c3)cc(-c3ncccn3)c2[nH]1 [Form IA] , reported solubility at 24 h: 4920

* * *

assay: Solubility in various media (equilibration on a shaking bed for 24 hours, HPLC); format: physicochemical; settings: Fasted SIF (Dressman's recipe 1), fassif, thermodynamic from solid, Dressman's recipe 1-Fasted SIF; ambient, 24 h; read-out: Solubility
MEASURED PARAMETER: solubility at 24 h

Memo: CCNC(=O)Nc1nc2cc(-c3cncc(F)c3)cc(-c3ncccn3)c2[nH]1 [Form IA] , reported solubility at 24 h: < 1 µg/mL

* * *

assay: Solubility in various media (equilibration on a shaking bed for 24 hours, HPLC); type: physicochemical; conditions: D5W (dextrose 5% in water), saline or isotonic, thermodynamic from solid, D5W (Dextrose 5% in water); ambient, 24 h; read-out: Solubility
MEASURED PARAMETER: solubility at 24 h

Memo: CCNC(=O)Nc1nc2cc(-c3cncc(F)c3)cc(-c3ncccn3)c2[nH]1 [Form IA] , reported solubility at 24 h: < 1 µg/mL

* * *

experiment: Solubility in various media (equilibration on a shaking bed for 24 hours, HPLC); assay type: physicochemical; settings: 10% Vit E TPGS, pH 5.57, aqueous with cosolvent or surfactant or cyclodextrin, thermodynamic from solid, 10% Vit E TPGS; pH 5.57; ambient, 24 h; read-out: Solubility
MEASURED PARAMETER: solubility at 24 h (µg/mL)
Only the number, expressed in µg/mL, is required.

Memo: CCNC(=O)Nc1nc2cc(-c3cncc(F)c3)cc(-c3ncccn3)c2[nH]1 [Form IA] , reported solubility at 24 h: 87

* * *

experiment: Solubility in various media (equilibration on a shaking bed for 24 hours, HPLC); assay type: physicochemical; conditions: Fed SIF (simulated intestinal fluid, Dressman's recipe 1), fessif, thermodynamic from solid, Dressman's recipe 1-Fed SIF (Simulated Intestinal Fluid); ambient, 24 h; read-out: Solubility
MEASURED PARAMETER: solubility at 24 h (µg/mL)
Only the number, expressed in µg/mL, is required.

Memo: CCNC(=O)Nc1nc2cc(-c3cncc(F)c3)cc(-c3ncccn3)c2[nH]1 [Form IA] , reported solubility at 24 h: 10
